Values compiled from PubChem BioAssay AID623992.

# Target: Benomyl/methotrexate resistance protein (Candida albicans) (UniProt P28873)
# Sequence (P28873 whole entry, looked up): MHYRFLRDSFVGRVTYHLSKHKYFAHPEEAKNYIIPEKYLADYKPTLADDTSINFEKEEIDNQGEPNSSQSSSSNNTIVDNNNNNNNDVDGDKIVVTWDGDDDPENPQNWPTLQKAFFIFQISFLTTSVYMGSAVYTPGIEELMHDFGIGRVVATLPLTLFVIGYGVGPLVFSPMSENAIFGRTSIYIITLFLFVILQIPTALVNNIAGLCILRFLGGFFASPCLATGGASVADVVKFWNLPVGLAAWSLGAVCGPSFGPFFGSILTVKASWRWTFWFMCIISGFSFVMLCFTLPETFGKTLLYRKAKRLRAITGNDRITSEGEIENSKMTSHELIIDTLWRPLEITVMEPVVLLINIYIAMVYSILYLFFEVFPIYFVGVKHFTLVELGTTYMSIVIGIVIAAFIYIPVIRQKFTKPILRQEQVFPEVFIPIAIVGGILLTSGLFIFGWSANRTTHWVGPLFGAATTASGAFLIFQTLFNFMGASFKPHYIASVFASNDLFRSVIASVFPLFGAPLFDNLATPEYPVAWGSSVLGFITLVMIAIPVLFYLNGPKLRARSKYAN
# Assay Details: Candida albicans Mdr1 pump blockade titration – singleplex, Cherry Pick2 set, dose response (AID 623992)
# Measurement Conditions: S. cerevisiae AD/CaMDR1, Nile Red efflux, flow cytometry; series mostly up to 100 µM
Potency and affinity values are given separately. The source made the active and inactive calls.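 Rule for the calls: active = compounds whose fitted half-maximal effective concentration for blocking dye efflux is below 100 µM; inactive = the rest.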
Endpoint Name: outcome

{"Molecule": "O=C(CSc1nnc(Cc2cccs2)n1Cc1ccco1)Nc1cccc(Cl)c1", "Assay Result": "inactive"}
{"Molecule": "COc1ccc(CNC(=O)C(C#N)c2nc3ccccc3nc2N2CCN(C)CC2)cc1 (centres undefined)", "Assay Result": "inactive"}
{"Molecule": "Cc1ccc(C)c(N2CCN(C(=O)C3CCCN(c4ncnc5c4nc4n5CCCCC4)C3)CC2)c1 (centres undefined)", "Assay Result": "inactive"}
{"Molecule": "Cc1ccc(C2CC(c3ccccc3)=NN2c2ccc(S(N)(=O)=O)cc2)cc1 (centres undefined)", "Assay Result": "inactive"}
{"Molecule": "C[C@H](CO)N1C[C@H](C)[C@@H](CN(C)S(=O)(=O)c2ccccc2)Oc2c(NC(=O)Nc3ccccc3)cccc2C1=O", "Assay Result": "inactive"}
{"Molecule": "O=C(NCCc1ccc(Cl)cc1)C1CCC(CNc2nc(=S)[nH]c3ccccc23)CC1 (centres undefined)", "Assay Result": "inactive"}
{"Molecule": "NS(=O)(=O)c1ccc(N2N=C(c3ccccc3)CC2c2ccccc2)cc1 (centres undefined)", "Assay Result": "inactive"}
{"Molecule": "COc1ccc(CNC(=O)C(C#N)c2nc3ccccc3nc2N2CCCC2)cc1 (centres undefined)", "Assay Result": "inactive"}
{"Molecule": "NS(=O)(=O)c1ccc(N2N=C(c3ccccc3)CC2c2ccc(F)cc2)cc1 (centres undefined)", "Assay Result": "inactive"}
